Experiment: yeast display, Sf9 membrane polyspecificity reagent, FACS + sequencing; frameworks hold sequencing errors

[
  {
    "ITEM_SEQUENCE": "QVQLVESGGGLVQAGGSLRLSCAASGSTFRDNAMGWYRQAPGKERELVAAISRSGARTYYADSVKGRFTISRDNAKNTVYLQMNSLKPEDTAVYYCNAVWRVKYRRGLDYWGQGTQVTVSS",
    "polyreactivity (PSR sort gate)": "high polyreactivity"
  },
  {
    "ITEM_SEQUENCE": "QVQLVESGGGLVQAGGSLRLSCAASGSTFYPYVMGWYRQAPGKEREFVAAISKSGGSTYYADSVKGRFTISRDNAKNTVYLQMNSLKPEDTAVYYCNKKVASYYRSYYYWGQGTQVTVSS",
    "polyreactivity (PSR sort gate)": "high polyreactivity"
  },
  {
    "ITEM_SEQUENCE": "QVQLVESGGGLVQAGGSLRLSCAASGSIFAPNAMGWYRQAPRKEREFVAGITQSGTSTYADSVKGRFTISRDNAKNTVYLQMNSLKPEDTAVYYCAAEYYYGYWYGYIISYDYWGQGTQVTVSS",
    "polyreactivity (PSR sort gate)": "high polyreactivity"
  }
]

###

Assay: yeast display, Sf9 membrane polyspecificity reagent, FACS + sequencing; frameworks hold sequencing errors
PROPERTY: polyreactivity (PSR sort gate)

[
  {
    "ITEM_SEQUENCE": "QVQLVESGGGLVQAGGSLRLSCAASGSTFNNYAMGSYRQAPGKVREFVAAINGSGGSTYYADSVKGRFTISRDNAKNTVYLQLNSRKPEDPAVYYCAADVSATAYYDLMDYWVQGTQVTVSS",
    "polyreactivity (PSR sort gate)": "low polyreactivity"
  },
  {
    "ITEM_SEQUENCE": "QVQLVESGGGLVQAGGSLRLSCAASGRTFYPNAMGWYRQAPGKEREFVARISDSGGSTYYADSVKGRFTISRDNAKNTVYLLMNSLKPEDTAVYYCAADYGDPRVNEYDYWGQGTQVTVSS",
    "polyreactivity (PSR sort gate)": "low polyreactivity"
  },
  {
    "ITEM_SEQUENCE": "QVQLVESGGGLVQAGGSLRLSCAASGFIFYSYAMGWYRQAPGKERELVAAISWSGGRTYYADSVKGRFTISRDNAKNTVYLQMNSLKPEDTAVYYCNADDYSFSFTVPYYIEYVYWGQGTQVTVSS",
    "polyreactivity (PSR sort gate)": "high polyreactivity"
  },
  {
    "ITEM_SEQUENCE": "QVQLVESGGGLVQAGGSLRLSCAASGSIFWNNAMGWSRQAPGKERELVAAISKSGTRTYYADSVKGRFTISRDNAKNTVYLQMNSLKPEDTAVYYCNALLRDSGTYAGDDYWGQGTQVTVSS",
    "polyreactivity (PSR sort gate)": "high polyreactivity"
  }
]

Attention now turns to another entry.
Field request: polyreactivity (PSR sort gate) | item: QVQLVESGGGLVQAGGSLRLSCAASGRTFRFYAMGWYRQAPGKERELVAAISYSGGSTYYADSVKGRFTISRDNAKNTVYLQMNSLKPEDTAVYYCNARYRLGSPVGYNYYTGYDYWGQGTQVTVSS
high polyreactivity

###

Test: yeast display, Sf9 membrane polyspecificity reagent, FACS + sequencing; frameworks hold sequencing errors
PROPERTY: polyreactivity (PSR sort gate)

Field: example entries. Status: answers known.
[
  {
    "ITEM_SEQUENCE": "QVQLVESGGGLVQAGGSLRLSCAASGGTFRLYTMGWYRQAPGKERELVAGISSSSGSTYYADSVKGRFTISRDNAKNTVYLQMNILKPEDTAVYYCAAYWPRSRYDYWGQGTQVTVSS",
    "PROPERTY": "polyreactivity (PSR sort gate)",
    "REPORTED_MEASUREMENT": "high polyreactivity"
  },
  {
    "ITEM_SEQUENCE": "QVQLQESGGGLVQAGGSLRLSCAASGYISLAQTIGWYRQAPGKEREFVASIALGSSTYYTDSVKGSFTISRDNANTPVYLQMNSLKPEDTAVYYCAARVGASYAHDYWGQGTQVTVSC",
    "PROPERTY": "polyreactivity (PSR sort gate)",
    "REPORTED_MEASUREMENT": "low polyreactivity"
  },
  {
    "ITEM_SEQUENCE": "QVQLVESGGGLVQSGGSLRLSSASSGRTFSGYVMGWYRQAPGKEREFVAVISRGGSTYYADSVKGRFTISRDNAKNTVYLQMNSLKPEDTAVYYCAGRLTYTGGQGAYDYWGQGTQVTVSS",
    "PROPERTY": "polyreactivity (PSR sort gate)",
    "REPORTED_MEASUREMENT": "high polyreactivity"
  },
  {
    "ITEM_SEQUENCE": "QVQLVESGGGLVQAGGSLRLSCAASGSIFSSYAMGWYRQAPGKERELVAAISQSGGDTYYADSVKGRFTISRDNAKNTVYLQMNSLKPEDTAVYYCAASVWYYPMDYWGKGTQVTVSS",
    "PROPERTY": "polyreactivity (PSR sort gate)",
    "REPORTED_MEASUREMENT": "low polyreactivity"
  }
]

Attention now turns to another entry.
Field request: polyreactivity (PSR sort gate) | item: QVQLVESGGGLVQAGGSLRLSCAASGFIFHGYAMGWYRQAPGKERELVAAISGTGGSTYYADSVKGRFTISRDNAKNTVYLQMNSLKPEDTAVYYYKAERSGNGYWGQGTQVTVSS
high polyreactivity

###

Test: yeast display, Sf9 membrane polyspecificity reagent, FACS + sequencing; frameworks hold sequencing errors
PROPERTY: polyreactivity (PSR sort gate)

[
  {
    "ITEM_SEQUENCE": "QVKLVESGGGLVQAGGSLRLSWAASGSILNRYAMGWYRQAPGKERELVAAITGSSGSTYYADSVKGRFTISRDNAKNTVYLQMNSLKPEDTAVYYCATAFRNGRGSYYYWGQGTQVTVSS",
    "PROPERTY": "polyreactivity (PSR sort gate)",
    "REPORTED_MEASUREMENT": "high polyreactivity"
  },
  {
    "ITEM_SEQUENCE": "QVQLVESGGGLVQAGGSLRLSCAASGSTFREYTMGWYRQAPGKERELVAAITNSGGSTYYADSVKGRFTISRDNAKNTVYLQLNSLKPEDTAVYYCAAEVGIVDYDYWGQGTQVTVSS",
    "PROPERTY": "polyreactivity (PSR sort gate)",
    "REPORTED_MEASUREMENT": "low polyreactivity"
  },
  {
    "ITEM_SEQUENCE": "QVQLVESGGGLVQAGGSLRLSSAASGRTFPIYAMGWYRQAPGKERELVATITLNDGNTYYADSVKGRFTISRDNAKNTVYLQMNSLKPEDTAVYYCAAKGGWPWHYHYQKNSEYDYWGQGTQVTVSS",
    "PROPERTY": "polyreactivity (PSR sort gate)",
    "REPORTED_MEASUREMENT": "low polyreactivity"
  },
  {
    "ITEM_SEQUENCE": "QVQLVESGGGLVQAGGSLRLSCAASGSTFEWYAMGGYRQAPGKEREFVASISWSGGRTYYADSVKGRFTISRDNAKNTVYLQMNSLKPEDTAVYYCAAVAVPLQVPSGRAASKRRYGYWGQGTQVTVSS",
    "PROPERTY": "polyreactivity (PSR sort gate)",
    "REPORTED_MEASUREMENT": "high polyreactivity"
  },
  {
    "ITEM_SEQUENCE": "QVQLVESGGGLLQAGGSLRLSCAASGRTFGHYAMGWYRQAPGKEREFVAAITRGGGRTYYADSVKGRFTISRDNAKNTVYLQMNSLKPEDTAVYYCARKQYWGYDYWGQGTQVTVSS",
    "PROPERTY": "polyreactivity (PSR sort gate)",
    "REPORTED_MEASUREMENT": "low polyreactivity"
  }
]

Field request: polyreactivity (PSR sort gate) | item: QVQLVESGGGLVQAGGSLRLSCAASGSIFIYYAMGWYRQAPGKERELVAAINTGGTTYYADSVKGRFTISRDNAKNTVYLQMNSLKPEDTAVYYCAKYIAYYGYVPSPWDHPGDDYWGQGTQVTVSS
low polyreactivity

Entry QVQLVESGGGLLKAGGSLRLSCAASGRIFDIYNMGWYRPAPGKERELVAAISSSGGRTYYADSVKGRFTISRDNAKTTVYLQMKSVKPEDTAVYYGAARPSKYVGSRGYDYWGQGTQVTVSS please
high polyreactivity

Entry QVQLVESGGGLVQAGGSLRLSCAASGRTFVYNAMGWYRQAPGKERELVATITSSGNTYYADSVKGRFTISRDNAKNTVYLQMNSLKPEDTAVYYCNRRYWTSGYWGQGTQVTVSS please
high polyreactivity

Entry QDQLVESGGGLVQAGGSLRLSCAASGRIFKSYAMGWYRQAHGKERELVAAISSSGGSTYYADSVKGRFTISRDNAKNTVYLQMNSLKPEDTAVYYCAAYGHYSWSYDYWGQGTQVTVSS please
high polyreactivity

Entry QLQLVESGGGLVQAGGSLRLSCAASGYIFEFYAMGWYSQARGKERELVDAIRWNGGTYYADSVKGRFTISRDNAKNTVYLQMNSLKPEDTAVYDCSASRYYRYKIGYVSRAMDYWGQGTQVTVSS please
high polyreactivity

Entry QVQLVESGGGLVQAGGSLRLSCAASGIIFAWYAMGWYRQAPGKERELVAAISYSGGTTYYADSVKGRFTISRDIAKNTVYLQMNSLKPEDTEVYYCAGRLHLFFSYDYWGQGTLVTVSS please
low polyreactivity

Entry QVQLVESGGGLVQAGGSLRLSCAASGGIFQGYTMGWYRQAPGKERELVAAISRRGGSTYYADSVKGRFTNSRDNAKNTVYLQMNSVKPEDTAVYYCAAGKPLQLPRYDYWGQGTQVTVSS please
low polyreactivity

Entry QVQLVESGGGLVQAGGSLRLSCAASGSTFSQNALGWYRQAPGKDRELVAAITSGGITYYADSVKGRFTMSRDNAKNTVYLQMNSLKPEDTAVYYCAADFWPSGRGVAFDYWGQGTQVTVSS please
low polyreactivity

Entry QVQLVDSGGGLVQAGGSLRLSCAASGSIVYYNDMGWYRQAPGKEREVVATITSGGTTYYADSVKGRFTISRDNAKNSVYVQMNSLKGEDTAVYYCAATSYPGFDDWGQGSQVTVSS please
low polyreactivity

Entry QVQLVESGGGLLQAGGSLPLSCAASGFTFVPYAMGLYIQAPGKERELDAAISSRGDSTYYADSVKGRFTISRDNAKNTVYLQMIRLSPEDTAFYYCIARTTPHMDYWGQGTQVTVSS please
low polyreactivity
